# Test protocol: Half life in human liver microsomes
# Type: ADME, Microsome
Parameter measured: half-life

Return value of half-life for input C[C@@H]1CCCN1CCCOc1ccc(-c2ccc(=O)n(C)c2)cc1 , no commentary.
> 40 min

---

# Test protocol: Ratio of drug level in brain to plasma in rat at 10 mg/kg, ip after 1 hr
# Assay type: ADME, organism-based
# Set-up: dose 10 mg/kg, route intraperitoneal
# Test conditions: read-out: BPR
Parameter measured: Kp at 1 h
Write no unit; give the number alone.

Report Kp at 1 h, nothing else, for this molecule: C[C@@H]1CCCN1CCCOc1ccc(-c2ccc(=O)n(C)c2)cc1
1.9
